Assay: Selectivity index, ratio of EC50 for human MRC5 cells to EC50 for Trypanosoma brucei brucei Squib 427
Assay type: toxicity
Details: read-out: Ratio EC50
One threshold, 3, splits the recorded selectivity ratio values: lower ones are class 1, equal or higher ones are class 0.

Observe how each entry below is paired with its result.
Cn1cnc(-c2cn([C@@H]3O[C@H](CO)[C@@H](O)[C@H]3O)c3ncnc(N)c23)c1 | class 0
Nc1ncnc2c1c(-c1cc3ccccc3cn1)cn2[C@@H]1O[C@H](CO)[C@@H](O)[C@H]1O | class 0
Nc1ncnc2c1c(-c1ccccn1)cn2[C@@H]1O[C@H](CO)[C@@H](O)[C@H]1O | class 0
Nc1ncnc2c1c(-c1ccccc1)cn2[C@@H]1O[C@H](CO)[C@@H](O)[C@H]1O | class 1
Nc1ncnc2c1c(-c1cc(Cl)cc(Cl)c1)cn2[C@@H]1O[C@H](CO)[C@@H](O)[C@H]1O | class 0
Cc1ccc(-c2cn([C@@H]3O[C@H](CO)[C@@H](O)[C@H]3O)c3ncnc(N)c23)cc1 | class 1
COc1ccc(-c2cn([C@@H]3O[C@H](CO)[C@@H](O)[C@H]3O)c3ncnc(N)c23)cc1 | class 1
Nc1ncnc2c1c(-c1ncccn1)cn2[C@@H]1O[C@H](CO)[C@@H](O)[C@H]1O | class 0
Nc1ncnc2c1c(-c1ccc3ccccc3c1)cn2[C@@H]1O[C@H](CO)[C@@H](O)[C@H]1O | class 1
Nc1ncnc2c1c(-c1ccc(Cl)cn1)cn2[C@@H]1O[C@H](CO)[C@@H](O)[C@H]1O | class 0

Please examine the following record next.
Query string: Hello, is selectivity ratio of the following molecule strictly smaller than 3? Nc1ncnc2c1c(-c1ccc(Cl)c(Cl)c1)cn2[C@@H]1O[C@H](CO)[C@@H](O)[C@H]1O
Result string: class 0

* * *

Assay: Selectivity index, ratio of EC50 for human MRC5 cells to EC50 for Trypanosoma brucei brucei Squib 427
Type: toxicity
Conditions: read-out: Ratio EC50
Measured Attribute: selectivity ratio
Give bare numbers.

Nc1ncnc2c1ccn2[C@@H]1O[C@H](CO)[C@@H](O)[C@H]1O | 4.6
Nc1ncnc2c1c(-c1cccc(Cl)c1)cn2[C@@H]1O[C@H](CO)[C@@H](O)[C@H]1O | 3.3
Nc1ncnc2c1c(-c1cnccn1)cn2[C@@H]1O[C@H](CO)[C@@H](O)[C@H]1O | 0.28

Next compound, selectivity ratio to be filled in.
Query string: Would you mind telling me what selectivity ratio value was observed for Nc1ncnc2c1c(-c1cc(Cl)ccn1)cn2[C@@H]1O[C@H](CO)[C@@H](O)[C@H]1O ?
Result string: 3.1

* * *

Assay: Selectivity index, ratio of EC50 for human MRC5 cells to EC50 for Trypanosoma brucei brucei Squib 427
Type: toxicity
Conditions: read-out: Ratio EC50
Would you mind telling me the reported selectivity ratio of each entry?

Nc1ncnc2c1c(-c1cncnc1)cn2[C@@H]1O[C@H](CO)[C@@H](O)[C@H]1O | > 1.2
Cc1ccc(C(=O)Nc2ccc(S(=O)(=O)O)c3cc(S(=O)(=O)O)cc(S(=O)(=O)O)c23)cc1NC(=O)c1cccc(NC(=O)Nc2cccc(C(=O)Nc3cc(C(=O)Nc4ccc(S(=O)(=O)O)c5cc(S(=O)(=O)O)cc(S(=O)(=O)O)c45)ccc3C)c2)c1 | > 1280
Nc1ncnc2c1c(-c1ccc(F)cn1)cn2[C@@H]1O[C@H](CO)[C@@H](O)[C@H]1O | > 13
Nc1ncnc2c1c(-c1cccc(Cl)n1)cn2[C@@H]1O[C@H](CO)[C@@H](O)[C@H]1O | > 37
Nc1ncnc2c1c(-c1ccc3ccccc3n1)cn2[C@@H]1O[C@H](CO)[C@@H](O)[C@H]1O | > 9.9

Turning now to a further record.
Query string: # input compound: Cc1ccnc(-c2cn([C@@H]3O[C@H](CO)[C@@H](O)[C@H]3O)c3ncnc(N)c23)c1 ; wanted: its selectivity ratio
Result string: > 1.7
